Origin of values: PubChem BioAssay (NCI)

system: PC-3 prostate; assay: NCI-60 one-dose screen, 48 h; details: 10 µM unless noted
Compounds without any hit were thinned out: in the full panel of roughly 83,000, 20% have a hit. Active and inactive are the calls of the source. The calls were made as follows: active = growth percent below 10; inactive = the rest.
Lab note: assign the record to one of active, inactive

Answered examples (6):
COc1cc2nccc(Oc3ccc(NC(=O)C4(C(=O)Nc5ccc(F)cc5)CC4)cc3)c2cc1OC	inactive
Cc1ccc(-[n+]2c3cc(N)c(C)cc3nc3cc(C)c(Nc4ccccc4)cc32)cc1	active
COc1cc2ncnc(Nc3cccc(Cl)c3F)c2cc1OC(=O)N1CCN(C)C[C@H]1C	inactive
Cn1c(=O)c(F)c(Nc2ccc(I)cc2F)c2c(=O)n(C[C@@H](O)CO)cnc21	inactive
Nc1nc(N)c2cc(CNc3ccc(C(=O)NC(CC(=O)O)C(=O)O)cc3)ccc2n1 (stereo not given)	inactive
N#CCNC(=O)c1ccc(-c2ccnc(Nc3ccc(N4CCOCC4)cc3)n2)cc1	inactive

Answer briefly: the call reported for Clc1ccc2c(NCCCNCc3ccc4c(c3)OCO4)ccnc2c1 in this assay.
inactive

Answer briefly: the call reported for COc1cc2c(cc1OCCCCN1CCN(CC(=O)Nc3ccc(Cl)cc3C(=O)c3ccccc3Cl)CC1)N=CC1CCCN1C2=O (stereo not given) in this assay.
active
